This collection of values is drawn from patent US20240116985A1.

Provide the recorded NanoBRET Abs IC50 for the entries that follow.
Biological target: T1, B-cat-Halo (UniProt P35222 1-781)
T1 sequence (looked up): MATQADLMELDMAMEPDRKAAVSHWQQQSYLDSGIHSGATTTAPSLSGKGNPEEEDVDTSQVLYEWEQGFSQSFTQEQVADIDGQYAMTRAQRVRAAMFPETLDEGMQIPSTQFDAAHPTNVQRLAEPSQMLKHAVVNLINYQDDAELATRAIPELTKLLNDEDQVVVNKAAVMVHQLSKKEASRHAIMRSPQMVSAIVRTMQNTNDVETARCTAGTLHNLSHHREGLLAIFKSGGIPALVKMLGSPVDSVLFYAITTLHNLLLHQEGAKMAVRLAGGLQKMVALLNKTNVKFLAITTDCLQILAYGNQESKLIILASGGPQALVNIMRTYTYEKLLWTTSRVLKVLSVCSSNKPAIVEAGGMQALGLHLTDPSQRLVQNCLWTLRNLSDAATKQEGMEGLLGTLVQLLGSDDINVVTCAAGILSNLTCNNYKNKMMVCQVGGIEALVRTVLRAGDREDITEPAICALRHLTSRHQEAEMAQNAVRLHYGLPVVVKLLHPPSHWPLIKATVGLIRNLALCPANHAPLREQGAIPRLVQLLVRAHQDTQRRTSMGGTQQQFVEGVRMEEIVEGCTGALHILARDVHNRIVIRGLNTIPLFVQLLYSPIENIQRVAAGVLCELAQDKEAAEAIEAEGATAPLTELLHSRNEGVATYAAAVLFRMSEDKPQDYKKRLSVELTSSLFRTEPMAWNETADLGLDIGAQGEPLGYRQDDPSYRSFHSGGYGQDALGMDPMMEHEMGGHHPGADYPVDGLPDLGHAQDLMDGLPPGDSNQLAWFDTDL
Assay: cell-based or functional assay
Starred links: 1 amine or outer side, 2 acyl side, 3 side chain; linkers in the order of their positions; H or OH if unused. Positions of bridges follow the written chain, without caps; N, C: chain ends. Non-standard residues stand in square brackets, D forms with d. Primed or numbered codes have the meaning given here. (4CF3PhAc)GAbu = (S)-2-amino-4-(N-(carboxymethyl)-2-(4-(trifluoromethyl)phenyl)acetamido)butanoic acid, O=C(Cc1ccc(C(F)(F)F)cc1)N(CC[C@H](N[*:1])C(=O)[*:2])CC(=O)[*:3]; PyrS2″ = (S)-3-amino-1-((pent-4-en-1-yloxy)carbonyl)pyrrolidine-3-carboxylic acid (stapling residue), C=CCCCOC(=O)N1CC[C@@](N[*:1])(C(=O)[*:2])C1; PyrS2 = (S)-3-amino-1-((pent-4-en-1-yloxy)carbonyl)pyrrolidine-3-carboxylic acid, C=CCCCOC(=O)N1CC[C@@](N[*:1])(C(=O)[*:2])C1; B5(22) = 2-amino-2-(pent-4-en-1-yl)hept-6-enoic acid (two alkene side chains), C=CCCCC(CCCC=C)(N[*:1])C(=O)[*:2]; B5(3) = 2,2-bis(4-pentenyl)glycine (stitching residue), C=CCCCC(CCCC=C)(N[*:1])C(=O)[*:2]; Phe(3-COOH) = N[C@@H](Cc1cccc(C(=O)O)c1)C(=O)O; Phe(3-F) = N[C@@H](Cc1cccc(F)c1)C(=O)O; Bta = N[C@@H](Cc1csc2ccccc12)C(=O)O; αAllylPro = C=CC[C@@]1(C(=O)O)CCCN1; tBuAla = CC(C)(C)C[C@H](N)C(=O)O; 3Thi = N[C@@H](Cc1ccsc1)C(=O)O
Give bare numbers, in µM.

Look at each binder and report its NanoBRET Abs IC50.
1. Ac-[αAllylPro]D[tBuAla][B5(3)]D[Phe(3-COOH)]AAFL[PyrS2″][Phe(3-F)][Bta]A-NH2 (staple 1-4, 4-11) [I-2261]
2. Ac-[αAllylPro]D[tBuAla][B5(22)]D[(4CF3PhAc)GAbu]AAFL[PyrS2][3Thi][Bta]Q-NH2 (staple 1-4, 4-11) [I-2246]

Out:
1. 6.4
2. 12.9
